Sourced from PubChem BioAssay AID2060485

Measured IC50, listed per entry.
tested on: A375 multi-cell spheroids with HUVEC/MSC, viability; experiment: Anticancer human tumor A375 cell line growth inhibition [GQUAD]; details: curve of first compound; second compound 0.0316 µM;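 note: spheroids exposed to compounds for seven days before readout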
// note: answer is a bare numeric in nM

Data request: Sample CC1COCCN1c1cc(C2(O)CC3CCC(C2)O3)c2cnn(-c3ccn[nH]3)c2n1 (stereo not given) + CN(C)c1ccc(Nc2c3ccc(NC(=O)CCN4CCCC4)cc3nc3cc(NC(=O)CCN4CCCC4)ccc23)cc1 — what was its IC50?
Data returned: 199

Data request: Sample COc1cc(C2c3cc4c(cc3C(OC3OC5COC(C)OC5C(O)C3O)C3COC(=O)C23)OCO4)cc(OC)c1O (stereo not given) + Cc1[nH]c2ccc(F)cc2c1-c1nc2c3cccnc3c3ncccc3c2[nH]1 — what was its IC50?
Data returned: 1630

Data request: Sample CC1COCCN1c1cc(-c2ccnn2C)c2ccnc(-c3ccn[nH]3)c2n1 (stereo not given) + Cc1cnc(CNC(=O)c2c(=O)c3ccc(N4CCCN(C)CC4)nc3n3c2sc2ccccc23)cn1 — what was its IC50?
Data returned: 279

---

Measured viability, T/C, listed per entry.
test system: A375 multi-cell spheroids with HUVEC/MSC, viability; assay: Anticancer human tumor A375 cell line growth inhibition [GQUAD]; conditions: second compound 0.1 µM; first compound 0.00999 µM; stronger effect = lower value;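 note: spheroids exposed to compounds for seven days before readout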
// note: answer is a bare numeric in %

{"columns": ["COMPOUND", "RESULT_UNITS", "viability, T/C"],
 "data": [
  ["Cn1ncnc1[C@H]1c2n[nH]c(=O)c3cc(F)cc(c23)N[C@@H]1c1ccc(F)cc1 + Cc1cnc(CNC(=O)c2c(=O)c3ccc(N4CCCN(C)CC4)nc3n3c2sc2ccccc23)cn1", "%", 72.2],
  ["CCc1c2c(nc3ccc(O)cc13)-c1cc3c(c(=O)n1C2)COC(=O)[C@]3(O)CC + CN(C)c1ccc(Nc2c3ccc(NC(=O)CCN4CCCC4)cc3nc3cc(NC(=O)CCN4CCCC4)ccc23)cc1", "%", 11.6],
  ["Cc1[nH]c2ccccc2c1CCNCc1ccc(/C=C/C(=O)NO)cc1 + Cc1[nH]c2ccc(F)cc2c1-c1nc2c3cccnc3c3ncccc3c2[nH]1", "%", 110],
  ["Cn1ncnc1[C@H]1c2n[nH]c(=O)c3cc(F)cc(c23)N[C@@H]1c1ccc(F)cc1 + CN(C)c1ccc(Nc2c3ccc(NC(=O)CCN4CCCC4)cc3nc3cc(NC(=O)CCN4CCCC4)ccc23)cc1", "%", 97.2],
  ["Cn1ncnc1[C@H]1c2n[nH]c(=O)c3cc(F)cc(c23)N[C@@H]1c1ccc(F)cc1 + Cc1[nH]c2ccc(F)cc2c1-c1nc2c3cccnc3c3ncccc3c2[nH]1", "%", 102],
  ["CCc1c2c(nc3ccc(O)cc13)-c1cc3c(c(=O)n1C2)COC(=O)[C@]3(O)CC + Cc1cnc(CNC(=O)c2c(=O)c3ccc(N4CCCN(C)CC4)nc3n3c2sc2ccccc23)cn1", "%", 15.6],
  ["CC[C@@]1(O)C(=O)OCc2c1cc1n(c2=O)Cc2cc3c(CN(C)C)c(O)ccc3nc2-1 + CN(C)c1ccc(Nc2c3ccc(NC(=O)CCN4CCCC4)cc3nc3cc(NC(=O)CCN4CCCC4)ccc23)cc1", "%", 96.2],
  ["CCc1c2c(nc3ccc(O)cc13)-c1cc3c(c(=O)n1C2)COC(=O)[C@]3(O)CC + Cc1[nH]c2ccc(F)cc2c1-c1nc2c3cccnc3c3ncccc3c2[nH]1", "%", 14.7]
]}

Let us move to another entry and its viability, T/C.
Data request: Param readout = viability, T/C; param system = A375 multi-cell spheroids with HUVEC/MSC, viability; param query = Cc1[nH]c2ccccc2c1CCNCc1ccc(/C=C/C(=O)NO)cc1 + CN(C)c1ccc(Nc2c3ccc(NC(=O)CCN4CCCC4)cc3nc3cc(NC(=O)CCN4CCCC4)ccc23)cc1 ; response: value
Data returned: 124

---

test system: A375 multi-cell spheroids with HUVEC/MSC, viability; assay: Anticancer human tumor A375 cell line growth inhibition [GQUAD]; conditions: second compound 1 µM; first compound 1 µM; active = viability on the fitted dose curve at most 10% of control; inactive = the rest;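 note: spheroids exposed to compounds for seven days before readout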
Could you please pick one outcome from this set? y for active, n for inactive

Use the examples below as a reference point.
{"columns": ["COMPOUND", "ASSIGNED_CLASS"],
 "data": [
  ["CC1COCCN1c1cc(C2(S(C)(=N)=O)CC2)nc(-c2ccnc3[nH]ccc23)n1 (stereo unspecified) + CN(C)c1ccc(Nc2c3ccc(NC(=O)CCN4CCCC4)cc3nc3cc(NC(=O)CCN4CCCC4)ccc23)cc1", "n"],
  ["Cc1cccc(N(C)C(=O)C2C(O)CCN2c2nc(C)cc(C(F)(F)F)c2C#N)c1 (stereo unspecified) + CN(C)c1ccc(Nc2c3ccc(NC(=O)CCN4CCCC4)cc3nc3cc(NC(=O)CCN4CCCC4)ccc23)cc1", "n"],
  ["CCCS(=O)(=O)Nc1ccc(F)c(C(=O)c2c[nH]c3ncc(-c4ccc(Cl)cc4)cc23)c1F + Cc1cnc(CNC(=O)c2c(=O)c3ccc(N4CCCN(C)CC4)nc3n3c2sc2ccccc23)cn1", "y"],
  ["COc1cc(C2c3cc4c(cc3C(OC3OC5COC(C)OC5C(O)C3O)C3COC(=O)C23)OCO4)cc(OC)c1O (stereo unspecified) + Cc1cnc(CNC(=O)c2c(=O)c3ccc(N4CCCN(C)CC4)nc3n3c2sc2ccccc23)cn1", "n"],
  ["CC(C)n1c(=O)n(C)c2cnc3cc(F)c(-c4ccc(OCCCN5CCCCC5)nc4)cc3c21 + Cc1cnc(CNC(=O)c2c(=O)c3ccc(N4CCCN(C)CC4)nc3n3c2sc2ccccc23)cn1", "n"]
]}

Data request: Recorded test outcome, item O=c1[nH]cc(F)c(=O)[nH]1 + Cc1[nH]c2ccc(F)cc2c1-c1nc2c3cccnc3c3ncccc3c2[nH]1
Data returned: n

Data request: Recorded test outcome, item CC(=O)O[C@H]1C(=O)[C@@]2(C)[C@H]([C@H](OC(=O)c3ccccc3)[C@]3(O)C[C@H](OC(=O)[C@H](O)[C@@H](NC(=O)c4ccccc4)c4ccccc4)C(C)=C1C3(C)C)[C@]1(OC(C)=O)CO[C@@H]1C[C@@H]2O + CN(C)c1ccc(Nc2c3ccc(NC(=O)CCN4CCCC4)cc3nc3cc(NC(=O)CCN4CCCC4)ccc23)cc1
Data returned: n

Data request: Recorded test outcome, item COc1cccc2c1C(=O)c1c(O)c3c(c(O)c1C2=O)CC(O)(C(=O)CO)CC3OC1CC(N)C(O)C(C)O1 (stereo unspecified) + Cc1[nH]c2ccc(F)cc2c1-c1nc2c3cccnc3c3ncccc3c2[nH]1
Data returned: n

---

test system: A375 multi-cell spheroids with HUVEC/MSC, viability; test: Anticancer human tumor A375 cell line growth inhibition [GQUAD]; settings: curve of first compound; second compound 0.1 µM;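 note: spheroids exposed to compounds for seven days before readout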
Measured pIC50, listed per entry.
Convention used: pIC50 is expressed as -log10 of the molar concentration.

{"columns": ["COMPOUND", "pIC50"],
 "data": [
  ["CC[C@@]1(O)C(=O)OCc2c1cc1n(c2=O)Cc2cc3c(CN(C)C)c(O)ccc3nc2-1 + Cc1[nH]c2ccc(F)cc2c1-c1nc2c3cccnc3c3ncccc3c2[nH]1", 7.27]
]}

Let us move to another entry and its pIC50.
Data request: Sample COc1cccc2c1C(=O)c1c(O)c3c(c(O)c1C2=O)CC(O)(C(=O)CO)CC3OC1CC(N)C(O)C(C)O1 (stereo not given) + Cc1[nH]c2ccc(F)cc2c1-c1nc2c3cccnc3c3ncccc3c2[nH]1 — what was its pIC50?
Data returned: 6.67

---

tested on: A375 multi-cell spheroids with HUVEC/MSC, viability; test: Anticancer human tumor A375 cell line growth inhibition [GQUAD]; conditions: second compound 0.316 µM; first compound 3.16 µM; active means viability on the fitted dose curve at most 10% of control; inactive means the rest;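 note: spheroids exposed to compounds for seven days before readout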
Could you please pick one outcome from this set? class 1 for active, class 0 for inactive

Use the examples below as a reference point.
{"columns": ["MOLECULE", "MEASUREMENT_TARGET", "ASSIGNED_CLASS"],
 "data": [
  ["CC(=O)O[C@H]1C(=O)[C@@]2(C)[C@H]([C@H](OC(=O)c3ccccc3)[C@]3(O)C[C@H](OC(=O)[C@H](O)[C@@H](NC(=O)c4ccccc4)c4ccccc4)C(C)=C1C3(C)C)[C@]1(OC(C)=O)CO[C@@H]1C[C@@H]2O + Cc1[nH]c2ccc(F)cc2c1-c1nc2c3cccnc3c3ncccc3c2[nH]1", "A375 multi-cell spheroids with HUVEC/MSC, viability", "class 0"],
  ["CC(C)n1c(=O)n(C)c2cnc3cc(F)c(-c4ccc(OCCCN5CCCCC5)nc4)cc3c21 + CN(C)c1ccc(Nc2c3ccc(NC(=O)CCN4CCCC4)cc3nc3cc(NC(=O)CCN4CCCC4)ccc23)cc1", "A375 multi-cell spheroids with HUVEC/MSC, viability", "class 0"]
]}

Data request: Recorded test outcome, item CC(=O)O[C@H]1C(=O)[C@@]2(C)[C@H]([C@H](OC(=O)c3ccccc3)[C@]3(O)C[C@H](OC(=O)[C@H](O)[C@@H](NC(=O)c4ccccc4)c4ccccc4)C(C)=C1C3(C)C)[C@]1(OC(C)=O)CO[C@@H]1C[C@@H]2O + Cc1cnc(CNC(=O)c2c(=O)c3ccc(N4CCCN(C)CC4)nc3n3c2sc2ccccc23)cn1
Data returned: class 0

Data request: Recorded test outcome, item Cc1cccc(N(C)C(=O)C2C(O)CCN2c2nc(C)cc(C(F)(F)F)c2C#N)c1 (centres undefined) + Cc1cnc(CNC(=O)c2c(=O)c3ccc(N4CCCN(C)CC4)nc3n3c2sc2ccccc23)cn1
Data returned: class 0

Data request: Recorded test outcome, item O=C(c1cc(Cc2n[nH]c(=O)c3ccccc23)ccc1F)N1CCN(C(=O)C2CC2)CC1 + CN(C)c1ccc(Nc2c3ccc(NC(=O)CCN4CCCC4)cc3nc3cc(NC(=O)CCN4CCCC4)ccc23)cc1
Data returned: class 0

Data request: Recorded test outcome, item COc1cccc2c1C(=O)c1c(O)c3c(c(O)c1C2=O)CC(O)(C(=O)CO)CC3OC1CC(N)C(O)C(C)O1 (centres undefined) + CN(C)c1ccc(Nc2c3ccc(NC(=O)CCN4CCCC4)cc3nc3cc(NC(=O)CCN4CCCC4)ccc23)cc1
Data returned: class 1

Data request: Recorded test outcome, item O=C(NO)c1cnc(N2CCN(S(=O)(=O)c3ccc4ccccc4c3)CC2)nc1 + CN(C)c1ccc(Nc2c3ccc(NC(=O)CCN4CCCC4)cc3nc3cc(NC(=O)CCN4CCCC4)ccc23)cc1
Data returned: class 1

Data request: Recorded test outcome, item O=c1[nH]cc(F)c(=O)[nH]1 + Cc1cnc(CNC(=O)c2c(=O)c3ccc(N4CCCN(C)CC4)nc3n3c2sc2ccccc23)cn1
Data returned: class 0

Data request: Recorded test outcome, item COc1ncnc(C2CC2)c1-c1ncc2cnn(Cc3ccc(-c4nc(C(F)(F)F)cn4C(C)C)cc3)c2n1 + CN(C)c1ccc(Nc2c3ccc(NC(=O)CCN4CCCC4)cc3nc3cc(NC(=O)CCN4CCCC4)ccc23)cc1
Data returned: class 0
